tested on: KRAS patient-derived spheroids with HUVEC/MSC, viability; assay: Anticancer human tumor 941728-121-R-J1-PDC patient-derived lung adenocarcinoma cell line growth inhibition [KRAS2]; settings: second compound 10 µM; first compound 0.316 µM; active compounds read low;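 further: spheroids exposed to agents for seven days before readout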
reportedProperty: viability, T/C (%)
Response body: numeric value in %, unit text excluded.

Here are 4 molecules together with their reported answers.
INSERT INTO measurements (molecule, system, reading) VALUES
  ('CC1COCCN1c1cc(-c2ccnn2C)c2ccnc(-c3ccn[nH]3)c2n1 (stereo not given) + CC1OCC2(CCN(c3cnc(Sc4ccnc(N)c4Cl)c(N)n3)CC2)C1N', 'KRAS patient-derived spheroids with HUVEC/MSC, viability', 14.4),
  ('COc1cc2nccc(Oc3ccc(NC(=O)C4(C(=O)Nc5ccc(F)cc5)CC4)cc3)c2cc1OC + CC1OCC2(CCN(c3cnc(Sc4ccnc(N)c4Cl)c(N)n3)CC2)C1N', 'KRAS patient-derived spheroids with HUVEC/MSC, viability', 12.2),
  ('CC(C)NCC(C(=O)N1CCN(c2ncnc3c2C(C)CC3O)CC1)c1ccc(Cl)cc1 (stereo not given) + CNCc1ccccc1-c1csc(C(C)Nc2nc(C)nc3cc(OC)c(OC)cc23)c1', 'KRAS patient-derived spheroids with HUVEC/MSC, viability', 0.12),
  ('CC(=O)OC12COC1CC(O)C1(C)C(=O)C(O)C3=C(C)C(OC(=O)C(O)C(NC(=O)OC(C)(C)C)c4ccccc4)CC(O)(C(OC(=O)c4ccccc4)C21)C3(C)C (stereo not given) + CC1OCC2(CCN(c3cnc(Sc4ccnc(N)c4Cl)c(N)n3)CC2)C1N', 'KRAS patient-derived spheroids with HUVEC/MSC, viability', 24.8);

Below: the item to evaluate.
Incoming: For KRAS patient-derived spheroids with HUVEC/MSC, viability, give viability, T/C of the listed molecule: O=C(c1cc(Cc2n[nH]c(=O)c3ccccc23)ccc1F)N1CCN(C(=O)C2CC2)CC1 + C=CC(=O)N1CCN(c2nc(=O)n(-c3c(C)ccnc3C(C)C)c3nc(-c4c(O)cccc4F)c(F)cc23)C(C)C1
Outgoing: 42.1
